Consider the following compounds; for each one, report its pIC50.
MEASURED ON: Bromodomain-containing protein 4 (Homo sapiens, UniProt O60885)
PROCEDURE TEXT: Inhibition of HTRF binding to N-terminal His-tagged BRD4(1) (unknown origin) using biotinylated tetra-acetylated histone H4 peptide and Cryptate-labeled streptavidin incubated for 2 hrs by TR-FRET assay
Numbers only, as −log10 of the molar value.

STRUCTURE AS SMILES	REPORTED PROPERTY	OBSERVED VALUE
COc1ccc(/C(=C\c2ccncc2)C(=O)N2CC(=O)Nc3ccccc32)cc1	pIC50	4.60
NC(=O)c1ccc(/C=C(/C(=O)N2CC(=O)Nc3ccccc32)c2ccccc2)cc1	pIC50	4.34
COc1ccc(/C=C(/C(=O)N2CC(=O)Nc3ccccc32)c2ccccc2)cc1	pIC50	4.59
COc1ccc(/C=C(/C(=O)N2CC(=O)Nc3ccccc32)c2ccc(OC)cc2)cc1	pIC50	4.80

Please turn your attention to the following entry.
Exercise: Give reported pIC50 value for O=C1CN(C(=O)c2cncc(-c3cccc(O)c3)c2)c2ccccc2N1
Key: 4.54

* * *

MEASURED ON: Bromodomain-containing protein 2 (Homo sapiens)
PROCEDURE TEXT: Inhibition of HTRF binding to N-terminal His-tagged BRD2(2) (unknown origin) at 50 uM using biotinylated tetra-acetylated histone H4 peptide and Cryptate-labeled streptavidin incubated for 2 hrs by TR-FRET assay
Sequence (P25440 whole entry, looked up): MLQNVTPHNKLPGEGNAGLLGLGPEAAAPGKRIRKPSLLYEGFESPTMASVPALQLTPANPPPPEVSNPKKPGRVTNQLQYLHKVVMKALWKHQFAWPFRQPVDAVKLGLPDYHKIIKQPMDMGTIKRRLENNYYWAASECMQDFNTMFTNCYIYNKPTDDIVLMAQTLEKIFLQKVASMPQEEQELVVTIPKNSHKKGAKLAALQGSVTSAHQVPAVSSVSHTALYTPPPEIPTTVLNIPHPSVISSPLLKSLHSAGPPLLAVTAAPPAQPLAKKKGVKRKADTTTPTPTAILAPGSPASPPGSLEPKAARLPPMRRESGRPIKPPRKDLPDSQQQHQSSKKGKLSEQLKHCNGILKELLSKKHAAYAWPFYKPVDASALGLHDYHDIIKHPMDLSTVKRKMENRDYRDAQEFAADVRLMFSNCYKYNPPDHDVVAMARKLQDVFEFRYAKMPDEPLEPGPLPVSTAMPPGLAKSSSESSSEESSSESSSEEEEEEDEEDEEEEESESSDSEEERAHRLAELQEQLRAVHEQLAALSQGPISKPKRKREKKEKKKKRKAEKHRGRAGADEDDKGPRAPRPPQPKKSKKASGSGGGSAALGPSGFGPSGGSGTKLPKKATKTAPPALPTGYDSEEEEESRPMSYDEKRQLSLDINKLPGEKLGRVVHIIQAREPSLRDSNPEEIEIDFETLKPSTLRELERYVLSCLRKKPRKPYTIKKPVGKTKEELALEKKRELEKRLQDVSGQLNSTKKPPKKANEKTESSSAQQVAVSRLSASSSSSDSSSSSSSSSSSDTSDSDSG
Consider the following compounds; for each one, report its inhibition.
Numbers only, in %.

STRUCTURE AS SMILES	OBSERVED VALUE
CCc1ccc(CC(=O)N2CC(=O)Nc3ccccc32)cc1	0

Working through the 5 compounds below one at a time, give inhibition for each.
1. CS(=O)(=O)N(CC(=O)N1CC(=O)Nc2ccccc21)c1ccccc1F
2. CSc1ccc(Cl)c(C(=O)N2CC(=O)Nc3ccccc32)c1
3. COc1cccc(OCC(=O)N2CC(=O)Nc3ccccc32)c1
4. O=C1CN(C(=O)Cc2ccc(Cl)cc2)c2ccccc2N1
5. O=C1CN(C(=O)c2sc3ccccc3c2Cl)c2ccccc2N1

Key:
1: 0; 2: 0; 3: 25; 4: 25; 5: 25

Working through the 5 compounds below one at a time, give inhibition for each.
1. CC(C)Sc1ccccc1C(=O)N1CC(=O)Nc2ccccc21
2. O=C1CN(C(=O)Cc2cccs2)c2ccccc2N1
3. O=C1CN(C(=O)c2cc(-c3cccc(Cl)c3)[nH]n2)c2ccccc2N1
4. Cc1ccc(-c2cc(C(=O)N3CC(=O)Nc4ccccc43)[nH]n2)cc1
5. Cc1cccc(OCCC(=O)N2CC(=O)Nc3ccccc32)c1

Key:
25
0
0
0
25

Working through the 5 compounds below one at a time, give inhibition for each.
1. CSc1ccc(CC(=O)N2CC(=O)Nc3ccccc32)cc1
2. O=C1CN(C(=O)CCc2ccccc2Cl)c2ccccc2N1
3. Cc1ccc(CC(=O)N2CC(=O)Nc3ccccc32)cc1
4. O=C1CN(C(=O)c2cccc(F)c2)c2ccccc2N1
5. COc1ccc(CC(=O)N2CC(=O)Nc3ccccc32)cc1OC

Key:
1. 0
2. 25
3. 0
4. 25
5. 25

* * *

MEASURED ON: Bromodomain-containing protein 2 (Homo sapiens)
PROCEDURE TEXT: Inhibition of HTRF binding to N-terminal His-tagged BRD2(2) (unknown origin) using biotinylated tetra-acetylated histone H4 peptide and Cryptate-labeled streptavidin incubated for 2 hrs by TR-FRET assay
Sequence (P25440 whole entry): as the sequence (P25440 whole entry, looked up) above
REPORTED PROPERTY: IC50 (µM)
Give bare numbers, in µM.

Study these solved cases before continuing.
STRUCTURE AS SMILES	MEASURED ON	IC50, µM
N#Cc1cccc(-c2cncc(C(=O)N3CC(=O)Nc4ccccc43)c2)c1	Bromodomain-containing protein 2 (Homo sapiens)	12
O=C1CN(C(=O)c2cncc(-c3ccccc3)c2)c2ccccc2N1	Bromodomain-containing protein 2 (Homo sapiens)	20
COC(=O)c1ccc(/C=C(/C(=O)N2CC(=O)Nc3ccccc32)c2ccccc2)cc1	Bromodomain-containing protein 2 (Homo sapiens)	25
NC(=O)c1ccc(/C=C(/C(=O)N2CC(=O)Nc3ccccc32)c2ccccc2)cc1	Bromodomain-containing protein 2 (Homo sapiens)	49

Please turn your attention to the following entry.
Exercise: // output IC50; input COc1ccc(/C=C(/C(=O)N2CC(=O)Nc3ccccc32)c2ccc(OC)c(OC)c2)cc1 ; system Bromodomain-containing protein 2 (Homo sapiens)
Key: 26
